- target or test system: Proteasome subunit beta (Trypanosoma cruzi) (UniProt O96673)
- Sequence (O96673 as listed by the source): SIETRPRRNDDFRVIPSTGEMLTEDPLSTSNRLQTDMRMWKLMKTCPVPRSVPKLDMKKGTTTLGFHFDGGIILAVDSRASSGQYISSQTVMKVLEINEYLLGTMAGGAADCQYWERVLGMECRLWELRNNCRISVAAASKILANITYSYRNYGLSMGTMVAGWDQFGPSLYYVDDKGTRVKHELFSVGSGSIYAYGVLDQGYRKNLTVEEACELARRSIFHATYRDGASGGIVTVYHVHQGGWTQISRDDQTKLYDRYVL
- assay overview: Trypanosoma cruzi proteasome chymotrypsin-like activity (TcProtChymo) assay.
- Type: functional
- Parameters: scale not given: in the data most compounds retested in dose-response had high values
- condition set: 9.37 µM
Entry flag: true (1) if Percent Effect reaches 9%; false (0) if it does not.

**Query** # check: Percent Effect of CC1CCCN(C(=O)CCc2cccnc2)C1 (stereo unspecified) is greater than or equal to 9%
**Result** false (0)

**Query** # check: Percent Effect of "Cc1cnc2c(c1NCc1ccncc1)c(=O)n(C)c(=O)n2C" is greater than or equal to 9%
**Result** true (1)

**Query** # check: Percent Effect of O=C(c1ccc(F)c(F)c1)N1CCCC1CN1CCCC1 (stereo unspecified) is greater than or equal to 9%
**Result** true (1)

**Query** # check: Percent Effect of "CN(c1cccnn1)C1CCN(C(=O)c2ccc3c(c2)COC3)CC1" is greater than or equal to 9%
**Result** false (0)

**Query** # check: Percent Effect of "CCOc1cc(F)ccc1NS(=O)(=O)c1cc(C)c(C(=O)O)s1" is greater than or equal to 9%
**Result** false (0)
